test system: P. falciparum K1; experiment: Antiplasmodial SYBR green assay, multidrug-resistant strain; assay type: cell-based; conditions: Plasmodium falciparum, K1, read-out: IC50 (nM ± SD) P. falciparum K1
Assay Metric: IC50 (nM)
Numbers only, in nM.

Which IC50 value is on record for CCN(CC)CCCC(C)Nc1ccnc2cc(Cl)ccc12 (stereo not shown) [CQ, Chloroquine, reference compound] ?
177

Origin of values: paper PMC6215995
